- Tested on: CAM
- assay protocol: chorioallantoic membrane (CAM) model of antiangiogenic effect
- Type: in vivo, chicken
- reported conditions: average antiangiogenic score on CAM, 50 µg/pellet, evaluated by stereomicroscope 24 hours after pellet application
quantity: Score

molecule	quantity	test value
C[C@]12C=CC(=O)C=C1CC[C@@H]1[C@@H]2C(=O)C[C@@]2(C)[C@H]1CC[C@]2(O)C(=O)CO [Prednisone]	Score	0.9
CCCCCCCCCCCCOS(=O)(=O)[O-].[Na+] [Sodium dodecyl sulphate (SDS), Sodium dodecyl sulphate]	Score	0.1
C[C@]12CCC(=O)C=C1CC[C@@H]1[C@@H]2C(=O)C[C@@]2(C)[C@H]1CC[C@]2(O)C(=O)CO [Cortisone]	Score	1.2
O=C1CCC(N2C(=O)c3ccccc3C2=O)C(=O)N1 (racemic) [(±)-Thalidomide]	Score	0.9
